Target: T1, Human CD98 ECD with C-terminal His-tag (human, UniProt P08195 105-529)
T1 construct: also called huCD98 ECD; recombinant human CD98 extracellular domain
T1 sequence: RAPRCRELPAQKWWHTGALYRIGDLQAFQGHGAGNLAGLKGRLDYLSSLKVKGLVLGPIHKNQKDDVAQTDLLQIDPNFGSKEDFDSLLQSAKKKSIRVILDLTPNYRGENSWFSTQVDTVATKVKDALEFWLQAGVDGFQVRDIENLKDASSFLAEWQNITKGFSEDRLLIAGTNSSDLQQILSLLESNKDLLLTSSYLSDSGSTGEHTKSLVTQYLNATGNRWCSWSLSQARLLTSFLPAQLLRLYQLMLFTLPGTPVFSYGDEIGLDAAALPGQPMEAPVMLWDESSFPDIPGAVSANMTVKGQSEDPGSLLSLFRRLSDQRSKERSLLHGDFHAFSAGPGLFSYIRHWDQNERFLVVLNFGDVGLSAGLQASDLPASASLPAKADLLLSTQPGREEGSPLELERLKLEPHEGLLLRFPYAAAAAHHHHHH
Experiment: SPR Biacore, anti-Fc capture of mAb, CD98 ECD analyte
measured_parameter: pKd
The meaning of pKd here: minus log10 of the concentration in molar units.

Reference set (2 entries):
binder="Anti-CD98 rat hybridoma antibody Ab15 (antibody, V domains shown) VH: EVQLVESGGGLVQPGRSLKLSCAASGFTFSDYTMAWVRQAPKKGLEWVATIIYDGRGTYYRDSVKGRFTISRDNAKSTLYLQMDSLRSEDTATYYCARQSDGTYYYWGYFDYWGQGVMVTVSS VL: DIVMTQSPSSLAVSAGETVTINCKSSQSLLFSGNQKNYLAWYQQKPGQSPKLLIYWASTRQSGVPDRFIGSGSGTDFTLTIRSVQAEDLAIYYCQQYYDSPYTFGAGTKLELK" measured_parameter=pKd obs_value=9.17
binder="Anti-CD98 rat hybridoma antibody Ab7 (antibody, V domains shown) VH: QVQLKESGPGLVQPSQTLSLTCTVSGFSLSTYGVIWVRQPPGKGLEWMGVIWANGNTNYNSTLKSRLSISRDTSKSQVYLKMNSLQTEDTATYYCARHYYDGTYYYGYFDYWGQGVMVTVSS VL: DIVMTQTPSSQAVSAGEKVTMNCKSSQSLLYSENKKNYLAWYQQKPGQSPKLLIYWASTRESGVPDRFIGSGSGTDFTLTISSVQAEDLAVYYCQQYYYFPYTFGPGTKLELK" measured_parameter=pKd obs_value=9.12

Memo: Anti-CD98 murine hybridoma antibody Ab3 (antibody, V domains shown) VH: EVKLVESGGGLVQPGNSLRLSCATSGFTFIDYYMSWVRQSPGKALEWLGFIRNKANGYTTEYSASVKGRFTISRDNSQSILYLQMDTLRAEDSATYYCTRDRPAWFVYWGQGTLVTVSA VL: DIVMSQSPSSLAVSVGEKVTMSCKSSQSLLYSSNQKNYLAWYQQKPGQSPKLLIYWASTRESGVPDRFTGSGSGTDFTLTFSSVRAEDLAVYYCQQYYSYPYTFGGGTKLEIK , reported pKd: 7.82

Record Anti-CD98 rat hybridoma antibody Ab9 (antibody, V domains shown) VH: QVQLKESGPGLVQPSQTLSLTCAVSGFSLSNYGVIWVRQPPGKGLEWMAVIWTNGNTNYNSTLKSRLSISRDTSKSQVYLKMNSLQTEDTATYYCARHYYDGTYYYGYFDYWGQGVMVTVSS VL: DIVMTQTPSSQAVSAGEKVTMSCKSSQSLLYTENKKNYLAWYQQKPGQSPKLLIYWASTRESGVPDRFMGSGSGTDFTLTISSVQAEDLAVYYCQQYYYFPYMFGAGTKLELK . Reported pKd: 8.92

Sample Anti-CD98 rat hybridoma antibody Ab6 (antibody, V domains shown) VH: QVQLKESGPGLAQPSQTLSLTCTVSGFSLSTYGVIWLRQPPGKGLEWMGVIWTNGNTNYNSTLKSRLSISRDTSESQVYLQMNSLQTEDTATYYCARHYYDGAYYYGYFDYWGQGVMVTVSS VL: DIVMTQTPSSQAVSAGEKVTMSCKSSQSLLYSENKKNYLAWYQQKPGQSPKLLIYWASTRESGVPDRFIGSGSGTDFTLTISSVQAEDLAVYYCQQYYYFPYTFGAGTKLELK ; pKd observed: 8.96
